# maps each entry to its optical density
target: Human Fc (human); experiment: ELISA, negative control

Binder	optical density
369_E11 (antibody, V domains shown) VH: EVQLLESGGGLVQPGGSLRLSCAASGFTFSSYGMNWVRQAPGKGLEWVSNINYNGGYTSYADSVKGRFTISRDNSKNTLYLQMNSLRAEDTAVYYCARSANWHDTALDYWGQGTLVTVSS VL: DIQMTQSPSSLSASVGDRVTITCRASQSIISYLNWYQQKPGKAPKLLIYAATSLASGVPSRFSGSGSGTDFTLTISSLQPEDFATYYCQQSYDTPLTFGGGTKVEIK	0.343 OD
373_B06 (antibody, V domains shown) VH: EVQLLESGGGLVQPGGSLRLSCAASGFTFSDYSMNWVRQAPGKGLEWVAGINYNGGYTGYADSVKGRFTISRDNSKNTLYLQMNSLRAEDTAVYYCARSANWHDTALDYWGQGTLVTVSS VL: DIQMTQSPSSLSASVGDRVTITCRASQSILTYVNWYQQKPGKAPKLVIYAATSRHSGVPSRFSGSGSGTDFTLTISSLQPEDFATYYCQQSYESPLTFGGGTKVEIK	0.221 OD

Now turn to the next binder.
get_value(item= 368_F03 (antibody, V domains shown) VH: EVQLLESGGGLVQPGGSLRLSCAASGFTFDSYSMNWVRQAPGKGLEWVAGINYNSGYTGYADSVKGRFTISRDNSKNTLYLQMNSLRAEDTAVYYCAKSANWHDTALDYWGQGTLVTVSS VL: DIQMTQSPSSLSASVGDRVTITCRASQSIISYLNWYQQKPGKAPKLVIYAATSRHSGVPSRFSGSGSGTDFTLTISSLQPEDFATYYCQQSYDSPLTFGGGTKVEIK , readout=optical density) returns 0.323 OD
